- System: HCT116
- measurement_description: efficacy (fitted maximal change in viability relative to DMSO control); higher = less cytotoxic (negative = loss of viability)
- reported_conditions: 48 h
Structures can show the parent of a compound that is named as a salt.
TRUE means recorded efficacy is -50% or above; FALSE means it is below -50%.

compound	label_value
CCC(=O)O[C@@]1([C@@H](C)C[C@H]2[C@@H]3CCC/4=C/C(=O)/C=C\[C@]4(C)[C@@]3(F)[C@@H](O)C[C@]12C)C(=O)CCl [Clobetasol propionate]	FALSE
c1cc(Nc2cc(C3CC3)n[nH]2)nc(Nc2ccc3nc[nH]c3c2)n1	FALSE
CC(C)(C)c1nc(-c2cccc(N[S+](=O)([O-])c3c(F)cccc3F)c2F)c(-c2ccnc(N)n2)s1	TRUE
CNC(=O)[C@H](Cc1ccccc1)NC(=O)[C@H](CC(C)C)[C@H](CSc1cccs1)C(=O)NO	TRUE
CCCCCNC(=N)N/N=C/c1c[nH]c2ccc(OC)cc12 [Tegaserod maleate]	FALSE
COC1=CC=C(C=C1)/C2=C(O)/C(=O)C3=C(O)C=C(O)C(=C3O2)CC=C(C)C	TRUE
Cc1ccccc1C(=O)Nc1ccc(C(=O)N2CCCC(O)c3cc(Cl)ccc32)c(C)c1 (stereo unspecified)	FALSE
CC1=C(/C=C/C(C)=C/C=C/C(C)=C\C(=O)O)C(C)(C)CCC1	TRUE

Request: Please tell me: is the compound `O=[S+]([O-])(O)c1ccc2cc(/N=N/c3cc([S+](=O)([O-])O)c4cccnc4c3O)ccc2c1` at or over -50% in terms of efficacy?
Response: TRUE

Request: Please tell me: is the compound `Cc1ccc2nc(NCCN)c3ncc(C)n3c2c1` at or over -50% in terms of efficacy?
Response: FALSE

Request: Please tell me: is the compound `CCc1ccc(/C=C2/SC(=S)NC2=O)cc1` at or over -50% in terms of efficacy?
Response: TRUE

Request: Please tell me: is the compound `COc1c(C)c2c(c(O)c1C/C=C(\C)CCC(=O)O)C(=O)OC2` at or over -50% in terms of efficacy?
Response: FALSE

Request: Please tell me: is the compound `Cc1ccc(NC(=O)c2ccc(CN3CCN(C)CC3)cc2)cc1Nc1nccc(-c2cccnc2)n1` at or over -50% in terms of efficacy?
Response: FALSE

Request: Please tell me: is the compound O=C(NOCC(O)CO)c1cc(Br)c(F)c(F)c1Nc1ccc(I)cc1F (stereo unspecified) at or over -50% in terms of efficacy?
Response: FALSE

Request: Please tell me: is the compound CN1[C@@H]2CCC[C@H]1CC(NC(=O)c1nn(C)c3ccccc13)C2 (stereo partly specified) at or over -50% in terms of efficacy?
Response: TRUE

----------
Answer each item with its documented efficacy.
- Tested on: HCT116;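 also: Luminescence-based viability readout, five doses per compound, normalized against on-plate DMSO and empty-well controls, followed by dose-response curve fitting for every drug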
- measurement_description: efficacy (fitted maximal change in viability relative to DMSO control); higher = less cytotoxic (negative = loss of viability)
- reported_conditions: 48 h
Numbers only, in %.

substance_smiles	assayed_system	result_unit	efficacy
Cc1csc(NC(=O)c2sc3nc4c(c(C(F)(F)F)c3c2N)CCC4)n1	HCT116	%	-42
CN(CC#C)C/C1=C/C2=CC=CC=C2OC3=CC=CC=C13	HCT116	%	-34.5
O=C(CC12CC3CC(CC(C3)C1)C2)Nc1cccc2nc(NCCNCCO)ccc12	HCT116	%	-101
N#Cc1c(C2CCNCC2)cc(-c2c(O)cccc2OCC2CC2)nc1N	HCT116	%	-89.2
CO[C@@H]1COCC[C@@H]1N[C@@H]1CC[C@@](C(=O)N2CCc3ncc(C(F)(F)F)cc3C2)(C(C)C)C1	HCT116	%	-11.1
CO[C@H]1CC[C@]2(CC1)CC3=C(C=C(C=C3)C4=CN=CC(=C4)C#CC)[C@@]2/5\N=C(C)/C(=N5)N	HCT116	%	-11.3

Give efficacy for each listed item.
1. CC[S+](=O)([O-])N1CCN(c2ccc(Nc3ncc(C(N)=O)c(NC4CC4)n3)cc2)CC1
2. CCCCCCCCCCCCCC(=O)N[C@H](CO)[C@H](O)c1ccc([N+](=O)[O-])cc1

Response:
[-88.9, -101]
